Where these numbers come from: the supplement of paper PMC12855868

B1: library; numbered along this chain (parent)
chain: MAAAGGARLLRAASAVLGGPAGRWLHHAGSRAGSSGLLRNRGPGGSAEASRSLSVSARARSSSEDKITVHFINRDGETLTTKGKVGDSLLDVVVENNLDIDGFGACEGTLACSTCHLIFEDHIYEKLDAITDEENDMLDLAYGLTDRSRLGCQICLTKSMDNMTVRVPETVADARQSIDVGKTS

Variants of: B1
ASSAY PROTOCOL: scaled log2 fold change in cell abundance, elesclomol vs control (0 = silent mean, 1 = nonsense mean) (scaled log2 ratio); higher = higher viability under elesclomol (loss of FDX1 cuproptosis function);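 also: variant abundance is its share of total variant reads in each endpoint sample, from next-generation sequencing of the integrated ORF PCR-amplified out of genomic DNA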
TEST SETTINGS: with ABC1 FDX1 KO; elesclomol 5 nM; glucose 10 mM; 14 days
Quick reference for scaled log2 fold change among some variants
Could you keep your reply to the number by itself?

For orientation, consider the following solved cases.
• F71A = 0.63
• T157N = -0.181
• S14V = 0.113
• R60M = -0.213
• C152Y = 1.15

Query string: Request the reported scaled log2 fold change associated with E64V
Result string: -0.321

Query string: Please report the recorded scaled log2 fold change for P20W .
Result string: -0.19

Query string: Would you kindly share the measured scaled log2 fold change for C112T ?
Result string: 1.16

Query string: Param item = A172D ; retrieve measured scaled log2 fold change.
Result string: 0.0896

Query string: Look up scaled log2 fold change for this variant: Y124K
Result string: 0.0432

Query string: State the recorded scaled log2 fold change for this entry: D99M
Result string: -0.0783
